The origin of these recorded values is patent US20100285131A1.

# target-desc: β-Klotho overexpressed in recombinant human 293T kidney cells
# experimental-details: cell-based or functional assay
observable: Efficacy (ELK-luciferase, relative to wild-type FGF21) (%)
Answer format: numeric, % implied, no suffix.

Guide cases for Efficacy (ELK-luciferase, relative to wild-type FGF21), answers given:
FGF21 truncation mutant 1-165 (ligand) HPIPDSSPLLQFGGQVRQRYLYTDDAQQTEAHLEIREDGTVGGAADQSPESLLQLKALKPGVIQILGVKTSRFLCQRPDGALYGSLHFDPEACSFRELLLEDGYNVYQSEAHGLPLHLPGNKSPHRDPAPRGPARFLPLPGLPPAPPEPPGILAPQPPDVGSSDP    10
FGF21 truncation mutant 1-172 (ligand) HPIPDSSPLLQFGGQVRQRYLYTDDAQQTEAHLEIREDGTVGGAADQSPESLLQLKALKPGVIQILGVKTSRFLCQRPDGALYGSLHFDPEACSFRELLLEDGYNVYQSEAHGLPLHLPGNKSPHRDPAPRGPARFLPLPGLPPAPPEPPGILAPQPPDVGSSDPLSMVGPS    97.5

Let's switch to this binder now.
State the recorded Efficacy (ELK-luciferase, relative to wild-type FGF21) for this entry: FGF21 truncation mutant 1-173 (ligand) HPIPDSSPLLQFGGQVRQRYLYTDDAQQTEAHLEIREDGTVGGAADQSPESLLQLKALKPGVIQILGVKTSRFLCQRPDGALYGSLHFDPEACSFRELLLEDGYNVYQSEAHGLPLHLPGNKSPHRDPAPRGPARFLPLPGLPPAPPEPPGILAPQPPDVGSSDPLSMVGPSQ
96.1
